In this section we review reported growth values for a set of compounds.
Tested on: NCI-H23 lung
Assay Notes: NCI-60 one-dose screen, 48 h (100 = growth as untreated, 0 = no growth, -100 = all killed)
Condition Label: 10 µM unless noted
About 83,000 compounds went through this panel and 20% of them were active in at least one assay; those are over-represented in the sample as a whole.
Hi! Could you send only the number? It should be in %, unit omitted.

{"columns": ["Compound", "Experimental Result"],
 "data": [
  ["C[C@]12CC[C@H](O)C[C@@H]1CC[C@@H]1[C@@H]2CC[C@]2(C)OC(=O)CC[C@@H]12", 108],
  ["c1ccc2c(c1)sc1ccccc12", 99.8],
  ["ClC1OC(Cl)(Cl)C(Cl)(Cl)OC1(Cl)Cl (centres undefined)", 98.6],
  ["CC[C@H](C)[C@H](NC(=O)c1ncccn1)C(=O)N(C)[C@H](C[C@@H](OC(C)=O)c1nc(C(=O)N[C@@H](Cc2ccccc2)C[C@H](C)C(=O)OC)cs1)C(C)C", 40.9],
  ["CC[C@H](C)[C@H](NC(=O)c1cnccn1)C(=O)N(C)[C@H](C[C@@H](OC(C)=O)c1nc(C(=O)N[C@@H](Cc2ccccc2)C[C@H](C)C(=O)OC)cs1)C(C)C", 26.2],
  ["CC/C(=C(\\c1ccc(OCCN2CCOCC2)cc1)c1ccc(OC(=O)Cc2ccccc2)cc1)c1ccc(Cl)cc1", 104]
]}

**Query** Field: growth (NCI-H23 lung). Entry: "[N-]=[N+]=CC(=O)CCC(=O)C=[N+]=[N-]"
**Result** 105

**Query** Field: growth (NCI-H23 lung). Entry: "C[N+]1(CC#CC[N+]2(C)CCCC2)CCCC1"
**Result** 111

**Query** Field: growth (NCI-H23 lung). Entry: "COc1ccn(C)c(=O)c1C#N"
**Result** 105
